biological target: Melanin-concentrating hormone receptor 1 (Homo sapiens); assay: Antagonist activity at MCHR1 by cAMP assay
metric: EC50 (µM)
State the answer as a number, implicitly in µM.

Look up EC50: COC(=O)Nc1ccc2c(c1)C[C@@H](CN1CC[C@@H](n3c(C)nc4cc(C)ccc43)[C@H](OC)C1)C2
0.02

Try this molecule too: Cc1ccc2c(c1)nc(C)n2C1CCN(CCCc2cccc(NC(=O)C(C)C)c2)CC1
0.175

Try this molecule too: CO[C@@H]1CN(C[C@H]2Cc3ccc(Br)cc3C2)CC[C@H]1n1c(C)nc2cc(C)ccc21
0.02

Try this molecule too: CO[C@@H]1CN(CC2Cc3ccccc3C2)CC[C@H]1n1c(C)nc2cc(C)ccc21
0.069

Try this molecule too: CO[C@H]1CN(CCCc2cccc(NC(=O)C3CC3)c2)CC[C@@H]1n1c(C)nc2cc(C)ccc21
0.02

Try this molecule too: CO[C@@H]1CN(C[C@H]2Cc3ccc(C#N)cc3C2)CC[C@H]1n1c(C(C)(C)O)nc2cc(C)ccc21
0.017

Try this molecule too: CO[C@@H]1CN(C[C@@H]2Cc3ccc(NC(=O)C(C)C)cc3C2)CC[C@H]1n1c(C)nc2cc(C)ccc21
0.04

Try this molecule too: CO[C@@H]1CN(C[C@H]2Cc3ccc(Br)cc3C2)CC[C@H]1n1c(C(C)(C)O)nc2cc(C)ccc21
0.03

----------
molecular target: Melanin-concentrating hormone receptor 1 (Homo sapiens, UniProt Q99705)
Sequence (Q99705 whole entry): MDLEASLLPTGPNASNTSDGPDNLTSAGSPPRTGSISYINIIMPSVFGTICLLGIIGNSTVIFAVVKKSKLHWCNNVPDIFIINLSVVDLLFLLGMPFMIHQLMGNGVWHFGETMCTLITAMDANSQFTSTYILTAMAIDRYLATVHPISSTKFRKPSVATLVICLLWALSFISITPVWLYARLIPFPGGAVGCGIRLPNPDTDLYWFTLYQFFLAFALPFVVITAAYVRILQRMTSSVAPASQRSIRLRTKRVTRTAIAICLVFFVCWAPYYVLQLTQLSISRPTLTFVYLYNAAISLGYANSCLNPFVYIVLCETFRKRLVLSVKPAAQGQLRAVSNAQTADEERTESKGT
pKi: −log10 of the molar value.
Decision: pKi compared against 8; not below it gives Y, below it gives N.

Hi team, for CO[C@H]1CN(CCCc2cccc(NC(=O)C3CC3)c2)CC[C@@H]1n1c(C)nc2cc(C)ccc21 , is the recorded pKi at or above 8?
Y

Try this molecule too: CO[C@@H]1CN(C[C@H]2Cc3ccc(Br)cc3C2)CC[C@H]1n1c(C)nc2cc(C)ccc21
Y

Try this molecule too: CO[C@@H]1CN(C[C@H]2Cc3ccc(C#N)cc3C2)CC[C@H]1n1c(C(C)(C)O)nc2cc(C)c(F)cc21
Y

Try this molecule too: CO[C@@H]1CN(CC2Cc3ccccc3C2)CC[C@H]1n1c(C)nc2cc(C)ccc21
N

Try this molecule too: COC(=O)Nc1ccc2c(c1)C[C@@H](CN1CC[C@@H](n3c(C)nc4cc(C)ccc43)[C@H](OC)C1)C2
N

Try this molecule too: CO[C@@H]1CN(C[C@H]2Cc3ccc(C#N)cc3C2)CC[C@H]1n1c(C(C)(C)O)nc2cc(C)ccc21
Y

Try this molecule too: CO[C@@H]1CN(C[C@@H]2Cc3ccc(NC(=O)C(C)C)cc3C2)CC[C@H]1n1c(C)nc2cc(C)ccc21
N

----------
molecular target: Sodium-dependent noradrenaline transporter (Homo sapiens); assay: Inhibition of NET at 10 uM
Exercise: for every item that follows, state its recorded inhibition.
State the answer as a number, implicitly in %.

Look up inhibition: CO[C@@H]1CN(C[C@H]2Cc3ccc(Br)cc3C2)CC[C@H]1n1c(C(C)(C)O)nc2cc(C)ccc21
77

Try this compound too: COC(=O)Nc1ccc2c(c1)C[C@@H](CN1CC[C@@H](n3c(C)nc4cc(C)ccc43)[C@H](OC)C1)C2
64

Try this compound too: Cc1ccc2c(c1)nc(C)n2C1CCN(CCCc2cccc(NC(=O)C(C)C)c2)CC1
57

Try this compound too: CO[C@@H]1CN(C[C@H]2Cc3ccc(Br)cc3C2)CC[C@H]1n1c(C)nc2cc(C)ccc21
69

Try this compound too: CO[C@H]1CN(CCCc2cccc(NC(=O)C3CC3)c2)CC[C@@H]1n1c(C)nc2cc(C)ccc21
61

Try this compound too: CO[C@@H]1CN(C[C@H]2Cc3ccc(C#N)cc3C2)CC[C@H]1n1c(C(C)(C)O)nc2cc(C)ccc21
12

Try this compound too: CO[C@@H]1CN(C[C@@H]2Cc3ccc(NC(=O)C(C)C)cc3C2)CC[C@H]1n1c(C)nc2cc(C)ccc21
1

Try this compound too: CO[C@@H]1CN(CC2Cc3ccccc3C2)CC[C@H]1n1c(C)nc2cc(C)ccc21
24

----------
test: Oral bioavailability in Sprague-Dawley rat at 30 mg/kg; assay type: ADME, organism-based; conditions: in vivo
Exercise: for every item that follows, state its recorded bioavailability.
State the answer as a number, implicitly in %.

Look up bioavailability: CO[C@@H]1CN(C[C@H]2Cc3ccc(C#N)cc3C2)CC[C@H]1n1c(C(C)(C)O)nc2cc(C)ccc21
47

Try this compound too: CO[C@@H]1CN(C[C@@H]2Cc3ccc(NC(=O)C(C)C)cc3C2)CC[C@H]1n1c(C)nc2cc(C)ccc21
61

----------
target: Melanin-concentrating hormone receptor 1 (Homo sapiens); test: Antagonist activity at MCHR1 by cAMP assay; type: functional
Exercise: for every item that follows, state its recorded Efficacy.
Note: a bare number is incomplete; add the unit.

Look up Efficacy: CO[C@@H]1CN(C[C@H]2Cc3ccc(Br)cc3C2)CC[C@H]1n1c(C(C)(C)O)nc2cc(C)ccc21
98%

Try this compound too: CO[C@@H]1CN(C[C@H]2Cc3ccc(C#N)cc3C2)CC[C@H]1n1c(C(C)(C)O)nc2cc(C)ccc21
85%

Try this compound too: CO[C@H]1CN(CCCc2cccc(NC(=O)C3CC3)c2)CC[C@@H]1n1c(C)nc2cc(C)ccc21
82%

Try this compound too: CO[C@@H]1CN(C[C@H]2Cc3ccc(Br)cc3C2)CC[C@H]1n1c(C)nc2cc(C)ccc21
92%

Try this compound too: COC(=O)Nc1ccc2c(c1)C[C@@H](CN1CC[C@@H](n3c(C)nc4cc(C)ccc43)[C@H](OC)C1)C2
81%

Try this compound too: CO[C@@H]1CN(C[C@@H]2Cc3ccc(NC(=O)C(C)C)cc3C2)CC[C@H]1n1c(C)nc2cc(C)ccc21
74%

Try this compound too: Cc1ccc2c(c1)nc(C)n2C1CCN(CCCc2cccc(NC(=O)C(C)C)c2)CC1
96%

Try this compound too: CO[C@@H]1CN(CC2Cc3ccccc3C2)CC[C@H]1n1c(C)nc2cc(C)ccc21
90%

----------
Exercise: for every item that follows, state its recorded inhibition.
target: Alpha-2A adrenergic receptor (Homo sapiens) (UniProt P08913); experiment: Inhibition of adrenergic alpha2A receptor at 10 uM
Sequence (P08913 whole entry): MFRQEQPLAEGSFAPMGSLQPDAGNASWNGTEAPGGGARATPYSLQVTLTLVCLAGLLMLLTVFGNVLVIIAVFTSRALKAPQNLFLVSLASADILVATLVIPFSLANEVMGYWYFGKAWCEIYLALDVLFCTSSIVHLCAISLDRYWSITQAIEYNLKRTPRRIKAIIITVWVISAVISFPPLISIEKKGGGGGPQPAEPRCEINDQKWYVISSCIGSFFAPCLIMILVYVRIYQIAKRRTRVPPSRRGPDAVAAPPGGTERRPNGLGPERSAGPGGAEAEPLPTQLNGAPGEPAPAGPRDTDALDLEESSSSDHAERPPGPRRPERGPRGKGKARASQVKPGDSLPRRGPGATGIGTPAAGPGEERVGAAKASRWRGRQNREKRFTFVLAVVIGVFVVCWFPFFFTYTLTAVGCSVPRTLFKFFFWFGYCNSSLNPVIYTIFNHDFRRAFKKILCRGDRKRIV
State the answer as a number, implicitly in %.

Look up inhibition: CO[C@@H]1CN(CC2Cc3ccccc3C2)CC[C@H]1n1c(C)nc2cc(C)ccc21
33

Try this compound too: Cc1ccc2c(c1)nc(C)n2C1CCN(CCCc2cccc(NC(=O)C(C)C)c2)CC1
37

Try this compound too: CO[C@@H]1CN(C[C@H]2Cc3ccc(C#N)cc3C2)CC[C@H]1n1c(C(C)(C)O)nc2cc(C)ccc21
12

Try this compound too: CO[C@@H]1CN(C[C@@H]2Cc3ccc(NC(=O)C(C)C)cc3C2)CC[C@H]1n1c(C)nc2cc(C)ccc21
7

Try this compound too: CO[C@@H]1CN(C[C@H]2Cc3ccc(Br)cc3C2)CC[C@H]1n1c(C)nc2cc(C)ccc21
81

Try this compound too: COC(=O)Nc1ccc2c(c1)C[C@@H](CN1CC[C@@H](n3c(C)nc4cc(C)ccc43)[C@H](OC)C1)C2
14

Try this compound too: CO[C@H]1CN(CCCc2cccc(NC(=O)C3CC3)c2)CC[C@@H]1n1c(C)nc2cc(C)ccc21
15

Try this compound too: CO[C@@H]1CN(C[C@H]2Cc3ccc(Br)cc3C2)CC[C@H]1n1c(C(C)(C)O)nc2cc(C)ccc21
34

----------
Exercise: for every item that follows, state its recorded inhibition.
Target: 5-hydroxytryptamine receptor 2C (Homo sapiens)
Sequence (whole entry): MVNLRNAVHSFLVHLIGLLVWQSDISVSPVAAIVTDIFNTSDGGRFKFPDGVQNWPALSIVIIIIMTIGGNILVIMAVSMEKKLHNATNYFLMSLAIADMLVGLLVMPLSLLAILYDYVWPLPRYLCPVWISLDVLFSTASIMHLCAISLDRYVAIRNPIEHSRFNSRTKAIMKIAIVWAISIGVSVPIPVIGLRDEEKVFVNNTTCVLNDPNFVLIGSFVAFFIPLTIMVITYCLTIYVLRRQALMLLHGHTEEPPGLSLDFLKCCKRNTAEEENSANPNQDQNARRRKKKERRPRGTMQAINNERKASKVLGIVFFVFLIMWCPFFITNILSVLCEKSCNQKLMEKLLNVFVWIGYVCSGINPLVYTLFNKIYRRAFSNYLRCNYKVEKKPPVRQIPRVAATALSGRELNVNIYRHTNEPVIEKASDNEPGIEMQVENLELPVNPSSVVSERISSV
Assay: Inhibition of 5HT2C receptor at 10 uM
State the answer as a number, implicitly in %.

Notebook: pull reported inhibition for 5-hydroxytryptamine receptor 2C (Homo sapiens), entry CO[C@@H]1CN(CC2Cc3ccccc3C2)CC[C@H]1n1c(C)nc2cc(C)ccc21
-8

Try this compound too: Cc1ccc2c(c1)nc(C)n2C1CCN(CCCc2cccc(NC(=O)C(C)C)c2)CC1
4

Try this compound too: COC(=O)Nc1ccc2c(c1)C[C@@H](CN1CC[C@@H](n3c(C)nc4cc(C)ccc43)[C@H](OC)C1)C2
8

Try this compound too: CO[C@@H]1CN(C[C@@H]2Cc3ccc(NC(=O)C(C)C)cc3C2)CC[C@H]1n1c(C)nc2cc(C)ccc21
3

Try this compound too: CO[C@@H]1CN(C[C@H]2Cc3ccc(Br)cc3C2)CC[C@H]1n1c(C(C)(C)O)nc2cc(C)ccc21
14

Sourced from ChEMBL document CHEMBL1141625
